# test method notes: yeast display, Sf9 membrane polyspecificity reagent, FACS + sequencing; frameworks hold sequencing errors

residues: QVQLVESGGGLVQAGGSLRLSCAASGSTFQNNAMGWSRQAPGKERELVAGITGGGGNTNYADSVKGRFTISRDNTKNTVYLQMNSRTPEDTAVYYCAADDPWLGVDFGYWGQGTQVTLSS
polyreactivity (PSR sort gate): low polyreactivity

residues: QVQLVESGGGLVQAGGSLRLSCAASGIILHYYAMGWYRQAPGKQRELVAAISARGGRTYYADSVKGRFTISRDNAKNTVYLQMNSLKPEDTAVYYCAAVTVASPTRMDYWGQGTLVTVSS
polyreactivity (PSR sort gate): high polyreactivity

residues: QVQLVESGGGLVQAGGSLRLSCAPSGSTFQYYAMGWYRQAPGKESELVATITRRGDSTYYADSVKGRFTISRDSAKNTVYFQMNSLKPEDTAVYYCATRYWRSGYDWPYGSWGQGTQETVSS
polyreactivity (PSR sort gate): high polyreactivity

residues: QVQLVESGGGLVHAGGSLRLSCAASGGIYWYYAMGWYRQAPGKERELVAAISITDGSTYYADSVKGRFTISRDKAKNTVYLQMNSLKPEDTAVYYCAAEEEEYIYDYWGQGTQVTVSS
polyreactivity (PSR sort gate): high polyreactivity

residues: QVQLVESGGGLVQAGGSLRLSCAASGRTISYAMGWYRQAPGKERELVAAIRYRGGSTYYADSVKGRFTISRDNAKNTVYLQMNSQKPEDTAVYYCAAQDSYTPPILFRRGYLRYDYWGQGTQVTVSS
polyreactivity (PSR sort gate): low polyreactivity

residues: QVQLVESGGGLVQAGGSLRLSCAASGRTFRFYVMGWYRQAPGKERELVAVIRYRGGSTYYADSVKGRFTISRDNAKNTVYLHMNSLTPEDTAVYYCNADFLLAGNEYDYWGQGTQVTVSS
polyreactivity (PSR sort gate): high polyreactivity

residues: QVQLVESGGGLVQAGGSLRLSCAASGRTFAWYTMGWYRQAPGKERELVAAISGSGGSTYYADSVKGRFTISRDNAKNTVYLQMNSLKPEDTAVYYCARRVDSYYGHTRYYYWGQGTQVTVSS
polyreactivity (PSR sort gate): high polyreactivity

residues: QVQLVESGGGLVQAGGSLRLSCAASGFIFSGNAMGWYRQAPGKERELVAAISTSGGRTYYADSVKGRFTISRDNAKNSDYLQMKSLKPEDTAVYYFNRAPWYRYTRDKYEYWGQGTQVTVSS
polyreactivity (PSR sort gate): high polyreactivity

residues: QVQLVESGGGLVQAGGSLRLSCAASGRTFAIYTRGWYRQAPGKERELVASITSSGASTYYADSVKGRFTISRDNAKNTVYLQMNSLKPEYTAVYYCAAGWYQGFDYWGQGTQVTVSS
polyreactivity (PSR sort gate): high polyreactivity

residues: QVQLVESGGGLVQAGGSLRLSCAASGRTFDRYAMGWARQAPGKERELVATISRSGGSTYYADSVKGRFTISRDNAKNTVYLQMNSLKPEDSAVYYCAARQRTTSDGWRDSWGQGTQVTVSS
polyreactivity (PSR sort gate): high polyreactivity

residues: QVQLVESGGGLVQAGGSLRLSCAASGRTFVNNAMGWYRQAPGKERELVAAITRSGGRTYYADSVKGRFTISRDNAKNTVYLQMNSLKPEDTAVYYCATANVRLRHDDYWGQGTQVTVSS
polyreactivity (PSR sort gate): high polyreactivity

====

# test method notes: yeast display, Sf9 membrane polyspecificity reagent, FACS + sequencing; frameworks hold sequencing errors

residues: QVQLVESGGGLVQAGGSLRLSCAASGFIFYSNAMGWYRQAPGKERELVAAISWDAGSTYYADSVKGRFTISRDNPKNTVYLQMNSLKPEDTAVYYCATDRIVGRYIYNYWGQGTQVTVSS
polyreactivity (PSR sort gate): high polyreactivity
//
residues: QVQLVESGGGLVQAGGSLRLSCAASGSISTFYAMGWYRQAPGKEREFVAAISTRDGTTRYADSVKGRFTISRDNAKNTVYLQMNSLKPEDTAVYYCAAKGGGVWLYARIYSDYYWGQGTQVTVSS
polyreactivity (PSR sort gate): low polyreactivity
//
residues: QVQLVESGGGLVQAGGSLRLSCAASGSIFVYNAMGWYRQATGKEREMVAVINKSGDTTYYADSVKGRFTISRDNAKNTVYLQMNSLKPEDTAVYYCNASGEVLAAVVSYDYWGQGTQVTVSS
polyreactivity (PSR sort gate): low polyreactivity
//
residues: QVQLVESGGGLVQAGGSLRLSCAASGSTFLTNVMGWYRQAPGKERELVAAITIGGSTNYADSVKGRFTISRDNAKNTVYLQMNSLKPEDTAVYYCATDIRRKPRYVDYEYWGQGTQVTVSS
polyreactivity (PSR sort gate): low polyreactivity
//
residues: QVQLVESGGGLVQAGGSLSLTCAASGSTFPGYPMGWYRQAPGKERELVAAINWRGDSTYYADSVKGRFTISRDNAKNTVYLQMNSLKPEDTAVYYCAAVRGTGTRRYDYWGQGTQVTVSS
polyreactivity (PSR sort gate): high polyreactivity

====

# test method notes: yeast display, Sf9 membrane polyspecificity reagent, FACS + sequencing; frameworks hold sequencing errors
measurement kind: polyreactivity (PSR sort gate)

residues: QVQLVESGGGLVQAGGSLRLSCAASGSIFRRNAMGWYRQAPGKERELVAVITRSGGSTYYADSVKGRFTISRDNAKTTVDLQMNSLKPEDTAVYYCDASRSSTRSFDYWGQGTQVTVSS
measurement kind: polyreactivity (PSR sort gate)
measured value: high polyreactivity

residues: QVQLVESGGGLVQAGGSLRLSCAASGSIFFVNAMAWYRQAPGKERESVAGITGGGSTYYADSVKGRFTISRDNAKNTVYLQMNSLKPEDTAVYYCNKKAYRKTGMDYWGQGTQVTVSS
measurement kind: polyreactivity (PSR sort gate)
measured value: low polyreactivity

residues: QVQLVESGGGLVQAGGSLRLSCAASGSNFTFYTMGWYRQEPGKERELVAAINWSGSRTYYADSVKGRFTISRDNAKNTVYLQMNSLKPEDTAVYYCDAYYYTGPTTVESDYWGQGTQVTVSS
measurement kind: polyreactivity (PSR sort gate)
measured value: high polyreactivity

residues: QVQLVESGGGLVQAGGSLRLSFAASGRTFPDNAMGWYRQAPGTQRELVATISWSGGSTYYADSVKGRFTISRDNAKNTVYLQMNSLKPEDTAVYYCARDSLQVFYPYASDDYWGQGTQVTVSS
measurement kind: polyreactivity (PSR sort gate)
measured value: low polyreactivity

residues: QVQLVESGGGLVQAGRRLRLSCAASGSTFGYYAMGWYRQAPGKERELVAAITSGATTNYADSVKGRFTISRDNAKNTVYLQMNSLKPEDTAVYYCAAGFQTRTPLNEFDNWGQGTQVTVSS
measurement kind: polyreactivity (PSR sort gate)
measured value: low polyreactivity

residues: QVQLVESSGGLVQAGGSLRLSCAASGFNFKRYAMGWSRQAPGKEREMVAAINSGGSTNYADSVKGRFTISRDNAKNTVYLQMNSLKPEDTAVYYCAASTSRYYWYALRDYWGQGTQVTVSS
measurement kind: polyreactivity (PSR sort gate)
measured value: high polyreactivity

residues: QVQLVESGGGLVQAGGSLRLSCAPSGRTFYSYAMGWYRHAPGKERELGAAITSSGGSTYYADSVKGRFTISRDNAKNTVYLQMNSLKPEDTAVYDCAAGKPYSSYWSWGYWTNLEDDYWGQGTQVNVSS
measurement kind: polyreactivity (PSR sort gate)
measured value: high polyreactivity

residues: QVQLVESGGGLVQAGGRLRLSCAASGRTIYGYDKGWYRQAPGKERELVAAINIGGRTNYADSVKGRFTISRDNAKNTVYLQMNSLKPEDTAVYYCADRYTFGPYLARSYGYWGQGTQVTVSS
measurement kind: polyreactivity (PSR sort gate)
measured value: low polyreactivity

residues: QVQLVESGGGLVQAGGSLRLSCAASGLTLSYNAMGWYRQAPGKERELVAAIRSGGSTNYADSVKGRFTISRDNAKNTVYLQMNSLKPEDTAVYYCAARFRYLPYRYGRYQSGYEYWGLGTQVTVSS
measurement kind: polyreactivity (PSR sort gate)
measured value: high polyreactivity

residues: QVQLVESGGGLVQAGGSLRLICAASGSIFTVYAMGWYRQAPGKERELVADIDYGGTYYADSVKGRFTISRDNAKNTVYLQMNSLKPEDTAVYYCAALAALDYGQLYLDDDDYWGQGTQVTVSS
measurement kind: polyreactivity (PSR sort gate)
measured value: low polyreactivity

residues: QVQLVESGGGLVQAGGSLRLSCAAYGINFLQYAMGWYRQAPGKDRELVAAITRRGDRTYYADSVKGRFTISRDNAKYTVYLQMISLKPEDTAVYYCAASYWYRDYYYWGQGTQVTVSS
measurement kind: polyreactivity (PSR sort gate)
measured value: high polyreactivity

====

# test method notes: yeast display, Sf9 membrane polyspecificity reagent, FACS + sequencing; frameworks hold sequencing errors

residues: QVQLVESGGGLVQAGGSLRLSCAASGSTFVYNAMGWYRQAPGKERELVASITRSGSSTYYADSVKGRFTISRDNAKNTVYLQMNSLKPEDTAVYYCAVRYSVLSNYRYYYWGQGTQVTVSS
polyreactivity (PSR sort gate): low polyreactivity
//
residues: QVQLVESGGGLVQAGGSLRLSCAASGFNFDFYAMGWYRQAPGKEREMVAAISKNDGTTYFAYSVKGRFTISRDNAKNTVYLQMNSLKPEDTAVYFCAAESGYPVYTYVSSGVYWGQGTQVTVSS
polyreactivity (PSR sort gate): low polyreactivity
//
residues: QVQLVESGGGFVQAGGSLRLSCAASGRIFAFYTMGWSRQAPGKEREFVAAISRSGGSTYYADSVKGRFTISRDNAKNTVYLQMNSLKPEDTAVYYCAKGGYSPKRVKYYDYWGQGTQVTVSS
polyreactivity (PSR sort gate): low polyreactivity
//
residues: QVQLVESGGGLVQAGGSLRLSCAASGFTFWRYAMGWYRQAPGKERELVAAINWSGGSTNYADSVKGRFTISRDNAKNTVYLQMNSLKPEDTAVYYCAVDPYQNDPSRWYTYPRRGNYWGQGTQVTVSS
polyreactivity (PSR sort gate): high polyreactivity
//
residues: QVQLVESGGGIVQAGGSLRLSCAASGFTFGSNAMGWYRQAPGKERELVAAISRSSGRTYYADSVKGRFTISRDNAKNNVYLHMNSLKQEDTAVYYCDAQTPYRISLQYYYWGQGTQVTVSS
polyreactivity (PSR sort gate): high polyreactivity
//
residues: QVQLVESGGGLDQAGGSLRLSGAASGSIFDNAMGWYSQAPGKERELVAAITSGGITNYADSVKGRFTISRDNAKNTVYLQMNSLKPEDTAVYYCNTLSPTQTKYDYWGQGTQVTVSS
polyreactivity (PSR sort gate): low polyreactivity
//
residues: QVQLVESGGGLVQAGGSLRLSCAASGGILHGYAMGWYIQEPGKERELVSGITYSGDDTNYADSVKGRFTISRDNAKNTVYLQMNSLKPEDTAVYYCAAGPVWHIFTIDYVSFDDWGQGTQVTVSS
polyreactivity (PSR sort gate): low polyreactivity
//
residues: QVQLVESGGGLVQAGGSLRLSCAASGGTFWVNMGWYRQAPGKEREFVAAITWSAGSTYYADSVKGRFTISRDNAKNTVYLQMNSLKPEDTAVYYCAGGGGHYQEYLMEDYWGQGTQVTVSS
polyreactivity (PSR sort gate): high polyreactivity
//
residues: QVQLVESGGGLVQAGGSLRLSCAASGSTFWTNAMGWFRHAPGKVRELVATISKTTGRTNYADSEKGRFTISRDNAKNTVYLQMNSLKPEDTAVYYCAAEPYSWDTWVDYDYWGIGTQVTVSS
polyreactivity (PSR sort gate): low polyreactivity
//
residues: QVQLVESGGGIVQAGGSLRLSSAASGRIFYRYAMGWYRQAPGKERELVASITRSGITHYADSVNGRFTISRDNAKNTVYLQMNSLKPEDTAVYYCNKRPWHRSSRPFYYWGQGTQVTVSS
polyreactivity (PSR sort gate): high polyreactivity
//
residues: QVHLVESGGGLVQAGGSLRLSCAASGSTFGRNAMGWYRQAPGKERELVAAISRGGGITYYADSVKGRFTISRDNAKNTVYLQMTSLKPEDTAVYYCNAYLSKYFRYDYWGQGTQVTVSS
polyreactivity (PSR sort gate): high polyreactivity
//
residues: QDQLVESGGGLVQAGGSLRLSCAASGSIFNVNTMGWYRQAPGKERGLVAAISYSGGSTYYADSVKGRFTISRDNAKNTVYLQMNSLKPEETAVYYCNVSPTTSGDGGGYDSWGQGTQVTVSS
polyreactivity (PSR sort gate): low polyreactivity
//
residues: QVQLVETAGGLVQAGGSLRLSCAASGSTFYTNAMGWYRQAPGKERELVAAISGSGGSTYYADSVKGRFTISRDNAKNTVYLQMISLKPEDTAVYNCAARSRYYDTRFDYWGQGTQVTVSS
polyreactivity (PSR sort gate): low polyreactivity
//
residues: QVQLVESGGGLVQAGGSLRLSCAASGRTFKYYAMGWYRQAPGKERELVAAISHSGGSTYYADSVKGRFTISRDNAKNTVYLQMNSLKPEDTAVYYCAADHGDGNYPYYYWGQGTQVTVSS
polyreactivity (PSR sort gate): high polyreactivity
//
residues: QVQLVESGGGVGQAGGSLRLSCAASGSNFKYYAMGWYRPAPGKERELVAVITSGGSTYYADSVKGRFTISRDNAKNTVYLQMNSLKPEDTAVYDCAAGVRAYNWGEYDYWGQGTQVTVSS
polyreactivity (PSR sort gate): low polyreactivity
//
residues: QVQLVESAGGLVQAGGSLRLSCAASGNTFRYYAIGWYRQAPGKERELVAVITTRGGSTNYADSVKGRFTISRDNAKNTVYLQMNRLKPEVTAGYYCNTLRHYGPGYDSGGQGTQVTVSS
polyreactivity (PSR sort gate): low polyreactivity
//
residues: QVQLVESGGGLVQAGGSLRLSCAASGRTLTRYTMGWYRQAPGKERELVATISRSGGNTHYADSLKGRFTISRDNAKNTVYFQMNSLKPEDTAVFYCNAVRYAIYGYDYWGQGTQVTVSS
polyreactivity (PSR sort gate): high polyreactivity
//
residues: QVQLVESGGGLVQAGGSLRLSCAASGFTFHRYAMGWYRQAPGKERELVARINWSGGGTYYADSVKGRFTISRDNAKNTVYLQMNSLKPEDTAVYYCNARGVFYVYKHDYWGQGTQVTVSS
polyreactivity (PSR sort gate): high polyreactivity
//
residues: QVQLVESGGGLVKAGGSLRLSCAASGNIFRRYAMGWYRQARGKERELVAAITWRGGNTYYADSVKGRFTISRDNAKNTVYLQMNCLKPEDTAVYYCNRVYRQRLGRDYWGLGTQVTVSS
polyreactivity (PSR sort gate): high polyreactivity
//
residues: QVQLVESGGGLVQAGGSLRLSCAASGRIFWTYAMGWYRQAPGKERELVAAINSSGGTTYYADSVKGRFTISRDNAKNTVYLQMNSLKPEDTAVYYCSVRGRYYYRRPQISYDYGGQGTQVTVSS
polyreactivity (PSR sort gate): low polyreactivity
//
residues: QVQLVESGGGLVQAGGSLRLSCAASGRTFYGYAMGWYRQAPGKERELVAGITSRVGSTYYADSVKGRFTISRDNAKNNVYLQMNSLKPEDTAVYYCAADRYAVRSYHYDYWGQGTQVTVSS
polyreactivity (PSR sort gate): low polyreactivity

Origin of the recorded values: the nanobody polyreactivity screen of Harvey et al. (2022)
